# Study System: succinate dehydrogenase/complex II (SDH) (Rattus norvegicus, UniProt P21913+Q641Z9+Q6PCT8+Q920L2)
# Construct: freshly isolated muscle mitochondria were assayed; from tissue; host or cells: rat skeletal muscle mitochondria (Wistar, Harlan Laboratories)
# Sequence (Q920L2 35-656): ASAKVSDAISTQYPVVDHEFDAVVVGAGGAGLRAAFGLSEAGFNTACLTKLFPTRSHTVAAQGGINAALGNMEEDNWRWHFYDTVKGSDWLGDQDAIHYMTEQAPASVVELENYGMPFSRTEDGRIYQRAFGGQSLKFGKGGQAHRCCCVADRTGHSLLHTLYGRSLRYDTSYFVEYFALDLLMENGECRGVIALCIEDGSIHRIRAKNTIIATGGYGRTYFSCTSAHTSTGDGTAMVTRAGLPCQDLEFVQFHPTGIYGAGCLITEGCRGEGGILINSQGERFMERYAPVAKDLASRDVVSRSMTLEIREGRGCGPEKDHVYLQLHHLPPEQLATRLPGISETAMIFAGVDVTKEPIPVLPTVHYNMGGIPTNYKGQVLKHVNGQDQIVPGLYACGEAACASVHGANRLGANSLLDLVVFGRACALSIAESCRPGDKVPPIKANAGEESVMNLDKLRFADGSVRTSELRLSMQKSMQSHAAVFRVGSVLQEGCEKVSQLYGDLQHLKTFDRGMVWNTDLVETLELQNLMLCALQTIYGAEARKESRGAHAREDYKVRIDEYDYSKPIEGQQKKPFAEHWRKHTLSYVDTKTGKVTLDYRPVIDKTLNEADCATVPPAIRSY
# Sequence (P21913 31-282): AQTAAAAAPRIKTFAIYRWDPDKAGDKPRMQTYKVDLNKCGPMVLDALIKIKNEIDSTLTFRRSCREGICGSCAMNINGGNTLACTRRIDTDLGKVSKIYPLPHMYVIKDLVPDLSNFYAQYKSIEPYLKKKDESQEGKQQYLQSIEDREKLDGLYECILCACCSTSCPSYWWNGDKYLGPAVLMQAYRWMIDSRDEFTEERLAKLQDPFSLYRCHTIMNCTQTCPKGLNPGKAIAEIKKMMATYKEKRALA
# Sequence (Q641Z9 30-169 limits assumed): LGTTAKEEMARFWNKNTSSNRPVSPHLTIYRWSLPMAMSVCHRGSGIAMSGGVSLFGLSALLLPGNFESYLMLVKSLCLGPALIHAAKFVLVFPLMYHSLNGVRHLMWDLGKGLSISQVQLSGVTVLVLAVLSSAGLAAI
# Sequence (Q6PCT8 57-159): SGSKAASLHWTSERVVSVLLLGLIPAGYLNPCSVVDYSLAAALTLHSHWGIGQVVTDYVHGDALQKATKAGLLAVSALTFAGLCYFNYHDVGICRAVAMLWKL
# Test: High-throughput screen: ROS production from succinate dehydrogenase/complex II (SDH)
# Assay type: biochemical
# Conditions: Table 9; percent change in ROS from DMSO controls
// returns false (0) unless SDH is strictly below 1, in which case true (1)

>>> print(df.to_string())
                                   compound  class_name
0  COc1ccc(-c2ccccc2)cc1NCC1=CC[C@H]2C[C@@H]1C2(C)C   false (0)
1     Cc1ccccc1NS(=O)(=O)c1ccc(C2CCCCC2)cc1    true (1)
2  Cc1ccccc1NS(=O)(=O)c1ccc(-c2ccc(S(=O)(=O)Nc3ccccc3C)cc2)cc1    true (1)
3  CC(C)Cc1ccc(C(C)C(=O)Nc2ccccc2O)cc1 (centres unmarked)   false (0)
4  CCN1CCN(C2CCC(C(C)(C)C)CC2)CC1 (centres unmarked)   false (0)

---

# System: mitochondrial membrane potential (ΔΨm)
# Test: Membrane potential (ΔΨm) counterscreen with TMRM
# Conditions: Table 8, glutamate, malate, nigericin
// reported ΔΨm for each item listed
Measured Property: ΔΨm

>>> df
                                   compound                            study_system  measured_property  readout_number
0    O=C(O)CCC(=O)Nc1ccc(-c2nc3ccccc3o2)cc1  mitochondrial membrane potential (ΔΨm)                ΔΨm             0.8
1  COc1ccc(-c2ccccc2)cc1NCC1=CC[C@H]2C[C@@H]1C2(C)C  mitochondrial membrane potential (ΔΨm)                ΔΨm             2.3
2  CN(C)c1ccc(C(=C2CN3CCC2CC3)c2ccc(N(C)C)cc2)cc1  mitochondrial membrane potential (ΔΨm)                ΔΨm              −1
3  O=[N+]([O-])c1ccc(Oc2ccc(S(=O)(=O)NC3CCCCC3)cc2)cc1  mitochondrial membrane potential (ΔΨm)                ΔΨm            −0.9
4  CCSC1=C(C#N)C2(CCCC2)C(C#N)C(=O)N1 (centres unmarked)  mitochondrial membrane potential (ΔΨm)                ΔΨm            −3.4

---

// reported GPDH for each item listed
# Study System: glycerol-3-phosphate dehydrogenase (GPDH) (Rattus norvegicus)
# Construct: The activity of GPDH in intact mitochondria (0.3 mg/mL) was measured; from tissue; host or cells: rat skeletal muscle mitochondria (Wistar, Harlan Laboratories)
# Sequence (P35571 43-727): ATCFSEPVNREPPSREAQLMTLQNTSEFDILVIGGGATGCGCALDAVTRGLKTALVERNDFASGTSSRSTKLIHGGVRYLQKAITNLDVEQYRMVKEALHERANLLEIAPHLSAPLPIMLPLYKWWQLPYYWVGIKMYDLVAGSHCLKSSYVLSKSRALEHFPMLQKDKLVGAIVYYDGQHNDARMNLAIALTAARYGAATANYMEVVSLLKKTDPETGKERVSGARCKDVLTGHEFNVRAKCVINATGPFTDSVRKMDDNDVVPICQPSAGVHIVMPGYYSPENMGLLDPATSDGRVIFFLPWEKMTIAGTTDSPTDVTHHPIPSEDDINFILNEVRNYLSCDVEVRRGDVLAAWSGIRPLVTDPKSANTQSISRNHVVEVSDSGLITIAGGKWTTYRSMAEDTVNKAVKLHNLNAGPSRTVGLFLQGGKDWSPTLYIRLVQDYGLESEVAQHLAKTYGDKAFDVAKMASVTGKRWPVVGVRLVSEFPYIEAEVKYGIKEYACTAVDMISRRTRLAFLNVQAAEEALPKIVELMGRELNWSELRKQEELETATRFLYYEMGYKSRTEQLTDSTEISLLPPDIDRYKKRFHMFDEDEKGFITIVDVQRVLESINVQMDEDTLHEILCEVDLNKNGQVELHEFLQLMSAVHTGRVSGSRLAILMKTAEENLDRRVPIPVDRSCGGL
# Test: High-throughput screen: ROS production from glycerol-3-phosphate dehydrogenase (GPDH)
# Format: biochemical
# Conditions: Table 8; percent change in ROS from DMSO controls
Measured Property: GPDH

>>> print(df.to_string())
                                   compound  readout_number
0  COc1ccccc1/C=C/c1nc(O)nc(O)c1[N+](=O)[O-]            −0.6
1        Cc1ccc(C)c(CN(CCCN(C)C)CCCN(C)C)c1             0.2
2  O=C(O)C1CCCCC1C(=O)NC1CCCCC1 (stereo not shown)            −1.0
3  O=C(Nc1ccccc1F)[C@@H]1C2C=CC(C2)[C@@H]1C(=O)O (stereo partly shown)            −1.7
4   COc1cccc(/C=C/C(=O)c2c(O)cc(C)oc2=O)c1O            −3.6
5     Cc1ccccc1NS(=O)(=O)c1ccc(C2CCCCC2)cc1             1.0
6         CCCN(CCO)Cc1ccc2c(c1)c1ccccc1n2CC            −2.5
7     C=C(C)CN(CC)Cc1cc([N+](=O)[O-])ccc1Cl             3.1
8  CCSC1=C(C#N)C2(CCCC2)C(C#N)C(=O)N1 (stereo not shown)            −0.1
9  COC(=O)c1ccc(CN(CCc2ccccc2)Cc2ccccc2)cc1             3.4

---

# Test system: ubiquinone binding site of complex I (IQ)
# Test: High-throughput screen: ROS production from ubiquinone binding site of complex I (IQ), isolated skeletal muscle mitochondria
# Assay type: biochemical, rat
# Conditions: Table 8; percent change in ROS from DMSO controls
// returns false (0) unless IQ is strictly below 0, in which case true (1)

>>> print(df.to_string())
                                    molecule                              study_system  class_name
 0        O=C(COc1ccc(Cl)cc1Cl)Nc1ccc(F)cc1F  ubiquinone binding site of complex I (IQ)    true (1)
 1  O=C(Nc1ccc(Br)cc1)[C@@H]1C2C=CC(C2)[C@@H]1C(=O)O (stereo partly drawn)  ubiquinone binding site of complex I (IQ)   false (0)
 2  CC1=CC(C)(C)N(Cc2ccc([N+](=O)[O-])cc2)c2ccccc21  ubiquinone binding site of complex I (IQ)   false (0)
 3  Cc1cc(C)c(OCC(O)CNC(C)(C)CC(C)(C)C)c(C)c1.Cl (stereo not drawn)  ubiquinone binding site of complex I (IQ)    true (1)
 4  CC1CC(C)(C)N(C=O)c2ccccc21 (stereo not drawn)  ubiquinone binding site of complex I (IQ)   false (0)
 5             CCN(CC)CCN(CC)Cc1ccc(Cl)cc1Cl  ubiquinone binding site of complex I (IQ)    true (1)
 6  Clc1ccc(C(NC2CCN(Cc3ccccc3)CC2)c2ccccc2)cc1 (stereo not drawn)  ubiquinone binding site of complex I (IQ)   false (0)
 7         CCN1CCN(C/C=C/c2ccc(N(C)C)cc2)CC1  ubiquinone binding site of complex I (IQ)    true (1)
 8  O=[N+]([O-])c1ccc(Oc2ccc(S(=O)(=O)NC3CCCCC3)cc2)cc1  ubiquinone binding site of complex I (IQ)    true (1)
 9                Oc1nnc(Cc2ccncc2)c2ccccc12  ubiquinone binding site of complex I (IQ)   false (0)
10       Cc1cc(C)c(S(=O)(=O)N2CCCC2=O)c(C)c1  ubiquinone binding site of complex I (IQ)   false (0)
11                 Cc1ccc(CCSc2ccc(F)cc2)cn1  ubiquinone binding site of complex I (IQ)   false (0)
12  O=C(Nc1ccccc1[N+](=O)[O-])c1cccc(S(=O)(=O)Nc2ccccc2)c1  ubiquinone binding site of complex I (IQ)    true (1)
13    CC(=O)Nc1ccc(S(=O)(=O)Nc2cccc(C)c2)cc1  ubiquinone binding site of complex I (IQ)    true (1)

---

# System: ubiquinone binding site of complex I (IQ)
# Test: High-throughput screen: ROS production from ubiquinone binding site of complex I (IQ), isolated skeletal muscle mitochondria
# Format: biochemical, rat
# Conditions: Table 9; percent change in ROS from DMSO controls
Measured Property: IQ

>>> print(df.to_string())
                                    molecule  measured_property  readout_number
 0  COc1cccc(CCNC2C3CC4CC(C3)CC2C4)c1 (centres unmarked)                 IQ            −0.8
 1  Fc1ccc(N2CCN(CC(c3ccccc3)c3ccccc3)CC2)cc1                 IQ             2.7
 2  Cc1ccc(C(C)C)c(OCC(O)CN2CCN(Cc3ccccc3)CC2)c1.Cl.Cl (centres unmarked)                 IQ             0.0
 3    CN(C)CCN(Cc1ccccc1)Cc1ccc(C(F)(F)F)cc1                 IQ            −2.1
 4    CC(=O)Nc1ccc(S(=O)(=O)Nc2cccc(C)c2)cc1                 IQ           −24.1
 5              O=C(Nc1ccccc1C(=O)O)c1ccccc1                 IQ            −1.0
 6  O=C(Nc1ccccc1[N+](=O)[O-])c1cccc(S(=O)(=O)Nc2ccccc2)c1                 IQ            −4.6
 7             CCN(CC)CCN(CC)Cc1ccc(Cl)cc1Cl                 IQ            −0.6
 8         CCCN(CCO)Cc1ccc2c(c1)c1ccccc1n2CC                 IQ            −0.1
 9  CC(C)(C)C1=NN(c2c(Cl)cc(Cl)cc2Cl)C(=O)C1                 IQ           −52.4
10              C=CCSc1nc(N)c(C#N)c(CC)c1C#N                 IQ           −36.5
11  COc1ccc(-c2ccccc2)cc1NCC1=CC[C@H]2C[C@@H]1C2(C)C                 IQ             0.2
12        CCCCN(Cc1ccccc1)Cc1cc(Cl)cc(Cl)c1O                 IQ            −3.9
13  O=C(O)/C=C/C(=O)Nc1ccc(/C=C/c2ccccc2)cc1                 IQ             1.7
14        c1cc2c3c(ccc(CSCCc4ccncc4)c3c1)CC2                 IQ             3.7
15     C=C(C)CN(CC)Cc1cc([N+](=O)[O-])ccc1Cl                 IQ            −0.2
16       Cc1cc(C)c(S(=O)(=O)N2CCCC2=O)c(C)c1                 IQ             4.3
17  O=C(Nc1ccccc1F)[C@@H]1C2C=CC(C2)[C@@H]1C(=O)O (some centres unmarked)                 IQ             0.2
18  Cc1ccccc1NS(=O)(=O)c1ccc(-c2ccc(S(=O)(=O)Nc3ccccc3C)cc2)cc1                 IQ           −20.7
19   Cc1ccc(NS(=O)(=O)c2ccc(C3CCCCC3)cc2)cc1                 IQ           −38.6
